Catalogue of molecules with associated Virus rating
- Test system: Vero
- PROTOCOL_DETAILS: Virus rating was determined by comparing cytopathic effect against vero cells after infection with Herpes simplex virus-1
- Type: functional, Chlorocebus sabaeus
MEASUREMENT_KIND: Virus rating

> print(dat)
                                   molecule  measurement.kind  measured.value
1  N=C(NO)c1nn(C2O[C@H](CO)[C@@H](O)[C@H]2O)c2nc[nH]c(=O)c12 (some centres undefined)      Virus rating             0.1
2  N#Cc1nn(C2O[C@H](CO)[C@@H](O)[C@H]2O)c2ncnc(S)c12 (some centres undefined)      Virus rating               1
3  O=Nn1c(=O)c2c(O)ncnc2n1C1O[C@H](CO)[C@@H](O)[C@H]1O (some centres undefined)      Virus rating            0.35
4  NC(=S)c1nn(C2O[C@H](CO)[C@@H](O)[C@H]2O)c2nc[nH]c(=O)c12 (some centres undefined)      Virus rating               0

Origin of measurements: ChEMBL document CHEMBL1122763
